Data provenance: ChEMBL document CHEMBL3425483

Tested on: Mus musculus
testSummary: In-vivo hypoglycemic activity in alloxan-pretreated diabetic BALB/c mouse assessed as blood glucose level after 8 hrs by glucometer analysis (reference value: 239.0 to 444.4 mg/dl)
Type: functional
Activity values for the compounds below.

Worked examples follow.
O=C1NC(=O)C2(c3ccccc3-c3ccccc32)N1S(=O)(=O)c1ccc2ccccc2c1: 135 mg/dL
O=C1NC2(C(=O)N1S(=O)(=O)c1ccc([N+](=O)[O-])cc1)c1ccccc1-c1ccccc12: 121.8 mg/dL
O=C1NC2(C(=O)N1S(=O)(=O)c1ccc(Br)cc1)c1ccccc1-c1ccccc12: 63.5 mg/dL
O=C1NC2(C(=O)N1S(=O)(=O)c1ccc3ccccc3c1)c1ccccc1-c1ccccc12: 108.6 mg/dL

Log: Mus musculus, compound O=C1NC(=O)C2(c3ccccc3-c3ccccc32)N1S(=O)(=O)c1ccc(Br)cc1 , Activity = 72.8 mg/dL

The reported Activity value, Mus musculus, for O=C1c2ccccc2C(=O)c2cc(S(=O)(=O)N3C(=O)NC(=O)C34c3ccccc3-c3ccccc34)ccc21 reads 544.6 mg/dL

* * *

system: Aldo-keto reductase family 1 member A1 (Bos taurus, UniProt Q3ZCJ2)
Sequence (Q3ZCJ2 2-325 limits assumed): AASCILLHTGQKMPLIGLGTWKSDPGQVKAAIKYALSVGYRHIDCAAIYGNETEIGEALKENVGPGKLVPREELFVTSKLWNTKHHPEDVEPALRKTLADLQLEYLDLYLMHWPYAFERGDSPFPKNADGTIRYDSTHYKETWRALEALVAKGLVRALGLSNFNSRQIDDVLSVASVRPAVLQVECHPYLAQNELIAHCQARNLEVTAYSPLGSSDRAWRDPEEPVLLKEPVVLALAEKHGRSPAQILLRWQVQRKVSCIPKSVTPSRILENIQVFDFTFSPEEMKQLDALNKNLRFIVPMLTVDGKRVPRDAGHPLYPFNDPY
Some compounds, each annotated with its measured pIC50.
pIC50 is defined as minus the log10 of a concentration measured in mol/L.

Before answering, review these 3 worked examples.
O=C1c2ccccc2C(=O)c2cc(S(=O)(=O)N3C(=O)NC(=O)C34c3ccccc3-c3ccccc34)ccc21: 4.69
COc1ccc(S(=O)(=O)N2C(=O)NC(=O)C23c2ccccc2-c2ccccc23)cc1: 4.86
Cc1ccc(S(=O)(=O)N2C(=O)NC(=O)C23c2ccccc2-c2ccccc23)cc1: 5.06

Tested system Aldo-keto reductase family 1 member A1 (Bos taurus, UniProt Q3ZCJ2); pIC50 recorded for O=C1NC(=O)C2(c3ccccc3-c3ccccc32)N1S(=O)(=O)c1ccc(Cl)cc1 was 4.92

Noted pIC50 for Cc1ccc(S(=O)(=O)N2C(=O)NC3(C2=O)c2ccccc2-c2ccccc23)cc1 , tested on Aldo-keto reductase family 1 member A1 (Bos taurus, UniProt Q3ZCJ2): 5.29

* * *

Reported Activity is given for each of the following compounds.
Test system: Mus musculus
testSummary: In-vivo hypoglycemic activity in alloxan-pretreated diabetic BALB/c mouse assessed as blood glucose level after 4 hrs by glucometer analysis (reference value: 239.0 to 444.4 mg/dl)
Assay type: functional
All answers are understood in mg/dL, so give the number only.

O=C1NC(=O)C2(c3ccccc3-c3ccccc32)N1S(=O)(=O)c1ccc2ccccc2c1: 197.3
O=C1NC2(C(=O)N1S(=O)(=O)c1ccc3ccccc3c1)c1ccccc1-c1ccccc12: 206

Next up:
Record COc1ccc(S(=O)(=O)N2C(=O)NC(=O)C23c2ccccc2-c2ccccc23)cc1 . Reported Activity: 205.6

* * *

Test system: Mus musculus
testSummary: In-vivo hypoglycemic activity in alloxan-pretreated diabetic BALB/c mouse assessed as blood glucose level after 8 hrs by glucometer analysis (reference value: 239.0 to 444.4 mg/dl)
Assay type: functional
Each entry below carries its reported Activity.
# output: number + unit

Here's what some known entries look like.
Cc1ccc(S(=O)(=O)N2C(=O)NC(=O)C23c2ccccc2-c2ccccc23)cc1: 116.2 mg/dL
O=C1NC(=O)C2(c3ccccc3-c3ccccc32)N1S(=O)(=O)c1ccc(Cl)cc1: 355 mg/dL
O=C1c2ccccc2C(=O)c2cc(S(=O)(=O)N3C(=O)NC4(C3=O)c3ccccc3-c3ccccc34)ccc21: 442.6 mg/dL
O=C1NC(=O)C2(c3ccccc3-c3ccccc32)N1S(=O)(=O)c1ccc([N+](=O)[O-])cc1: 138.2 mg/dL
COc1ccc(S(=O)(=O)N2C(=O)NC(=O)C23c2ccccc2-c2ccccc23)cc1: 129 mg/dL

Entry Cc1ccc(S(=O)(=O)N2C(=O)NC3(C2=O)c2ccccc2-c2ccccc23)cc1 , tested on Mus musculus, has a reported Activity of 123.6 mg/dL

# COc1ccc(S(=O)(=O)N2C(=O)NC3(C2=O)c2ccccc2-c2ccccc23)cc1 with Mus musculus: Activity is 418.8 mg/dL

Entry O=C1NC2(C(=O)N1S(=O)(=O)c1ccc(Cl)cc1)c1ccccc1-c1ccccc12 , tested on Mus musculus, has a reported Activity of 68 mg/dL
